Molecular target: CDK6/CyclinD1 (Homo sapiens, UniProt Q00534)
Sequence (Q00534 whole entry): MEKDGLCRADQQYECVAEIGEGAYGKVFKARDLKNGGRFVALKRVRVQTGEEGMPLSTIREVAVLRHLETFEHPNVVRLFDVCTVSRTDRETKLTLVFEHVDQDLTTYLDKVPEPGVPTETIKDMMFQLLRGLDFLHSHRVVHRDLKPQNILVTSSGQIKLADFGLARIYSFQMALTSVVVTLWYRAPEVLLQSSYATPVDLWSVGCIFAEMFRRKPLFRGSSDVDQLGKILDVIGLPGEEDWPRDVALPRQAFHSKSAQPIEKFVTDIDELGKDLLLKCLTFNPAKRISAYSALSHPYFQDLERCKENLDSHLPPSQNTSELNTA
Sequence (P24385 whole entry partner): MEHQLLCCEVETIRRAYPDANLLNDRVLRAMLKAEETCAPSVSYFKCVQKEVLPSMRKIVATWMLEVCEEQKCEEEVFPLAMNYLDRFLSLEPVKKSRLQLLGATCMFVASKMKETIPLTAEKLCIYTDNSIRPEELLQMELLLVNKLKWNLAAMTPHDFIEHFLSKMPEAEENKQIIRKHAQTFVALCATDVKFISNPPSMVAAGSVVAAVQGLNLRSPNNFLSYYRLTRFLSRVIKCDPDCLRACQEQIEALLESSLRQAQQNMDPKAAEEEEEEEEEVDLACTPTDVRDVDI
Experiment: In vitro cell-free CDK6/CyclinD1 kinase activity assay (TR-FRET)
Conditions: ATP at Km
IC50 values by entry

- Molecule: "CN(C)C(=O)c1cc2cnc(Nc3ccc(N4CC5(CCNC5)C4)cn3)nn2c1-c1cnn(C)c1"
  Target System: "CDK6/CyclinD1 (Homo sapiens, UniProt Q00534)"
  IC50: "< 100 nM"
- Molecule: "C1=C(c2ccc3cnc(Nc4ccc(N5CCNCC5)cc4)nn23)CCC1"
  Target System: "CDK6/CyclinD1 (Homo sapiens, UniProt Q00534)"
  IC50: "100 to 1000 nM"
- Molecule: "Cc1ncc(-c2cc3cnc(Nc4ccc(N5CCNCC5)cn4)nn3c2C2=CCCC2)cn1"
  Target System: "CDK6/CyclinD1 (Homo sapiens, UniProt Q00534)"
  IC50: "< 100 nM"
- Molecule: "N#Cc1cc2cnc(Nc3ccc(N4CCNCC4)cn3)nn2c1-c1cccnc1"
  Target System: "CDK6/CyclinD1 (Homo sapiens, UniProt Q00534)"
  IC50: "100 to 1000 nM"
- Molecule: "C1=C(c2c(-c3cnoc3)cc3cnc(Nc4ccc(N5CCNCC5)cn4)nn23)CCC1"
  Target System: "CDK6/CyclinD1 (Homo sapiens, UniProt Q00534)"
  IC50: "< 100 nM"
- Molecule: "CN(C)C(=O)c1cc2cnc(Nc3ccc(N4CCC5(CCNCC5)C4)cn3)nn2c1-c1ccc(Cl)cc1"
  Target System: "CDK6/CyclinD1 (Homo sapiens, UniProt Q00534)"
  IC50: "< 100 nM"
- Molecule: "CN(C)C(=O)c1cc2cnc(Nc3ccc(N4CCNCC4)cn3)nn2c1-c1ccccc1"
  Target System: "CDK6/CyclinD1 (Homo sapiens, UniProt Q00534)"
  IC50: "< 100 nM"
- Molecule: "CP(C)(=O)c1ccc(Nc2ncc3cc(C#N)c(Br)n3n2)cc1 [Reference Example 128, reference compound]"
  Target System: "CDK6/CyclinD1 (Homo sapiens, UniProt Q00534)"
  IC50: "1000 to 3000 nM"
- Molecule: "Cc1cc(-c2cc3cnc(Nc4ccc(N5CCN(C)CC5)cn4)nn3c2C2=CCCC2)ccn1"
  Target System: "CDK6/CyclinD1 (Homo sapiens, UniProt Q00534)"
  IC50: "< 100 nM"
- Molecule: "[2H]C([2H])([2H])N1CCN(c2ccc(Nc3ncc4cc(C(=O)N(C([2H])([2H])[2H])C([2H])([2H])[2H])c(-c5ccc(OC)cc5)n4n3)nc2)CC1"
  Target System: "CDK6/CyclinD1 (Homo sapiens, UniProt Q00534)"
  IC50: "< 100 nM"
- Molecule: "FC(F)n1cc(-c2cc3cnc(Nc4ccc(N5CCNCC5)cn4)nn3c2C2=CCCC2)cn1"
  Target System: "CDK6/CyclinD1 (Homo sapiens, UniProt Q00534)"
  IC50: "100 to 1000 nM"
- Molecule: "Cn1cc(-c2c(C3=CCCC3)c3cnc(Nc4ccc(N5CCNCC5)cn4)nn3c2C2=CCCC2)cn1 [Reference Example 130, reference compound]"
  Target System: "CDK6/CyclinD1 (Homo sapiens, UniProt Q00534)"
  IC50: "1000 to 3000 nM"
- Molecule: "Cn1cc(-c2cc3cnc(Nc4ccc(N5CCNCC5)cn4)nn3c2N2CCOCC2)cn1"
  Target System: "CDK6/CyclinD1 (Homo sapiens, UniProt Q00534)"
  IC50: "< 100 nM"
- Molecule: "O=C1CCCN1c1cc2cnc(Nc3ccc(N4CCNCC4)cn3)nn2c1-c1ccc(Cl)cc1"
  Target System: "CDK6/CyclinD1 (Homo sapiens, UniProt Q00534)"
  IC50: "100 to 1000 nM"
- Molecule: "CN1CCN(c2ccc(Nc3ncc4cc(C(=O)N(C)C)c(C5=CCOCC5)n4n3)nc2)CC1"
  Target System: "CDK6/CyclinD1 (Homo sapiens, UniProt Q00534)"
  IC50: "< 100 nM"
